Experiment: yeast display, Sf9 membrane polyspecificity reagent, FACS + sequencing; frameworks hold sequencing errors
Measure: polyreactivity (PSR sort gate)

>>> result("QVQLVESGGGLVQAGGSLRLSCAASGRTFARNAMGWSRQAPGKERELVAAITRSGGSTYYADSVKGRFTISRDNAKNTVYLQMNSLKPEDTAVYYCAAVGTGSSLRYGYWGQGTQVTVSS")
"high polyreactivity"
>>> result("QVQLVESGRGLVQAGGSLRLSCAASGIFTRYAMGWYRQAPGKERELVAAISRGGGSTYYADSVKGSFTISRDNAKNTVYLQMNSLKPEDTAVYYCAADNSPRPYDYWGQGTQVTVSS")
"high polyreactivity"
>>> result("QVQLVESGGGLVQAGGSLRLSCAASGSNFGYYTLGWYRQAPGKERELVAAIRYGDGSTNYADSVKGRFTISRDNAKNTVYLKMNSLKPEDTAVYYCATRSQRGYRGYNYWGQGTQVTLSS")
"high polyreactivity"
>>> result("QVQLVESGGGLVQAGGSLRVSCAASGRTSSINAMGWYREAPGKERELVAVITGRGGSTYYADSVKGRCTISRDNAKNTVYLQINSLKPEDTAVYYCAARRVPSVSGTYDYWGQGTQVTVSS")
"high polyreactivity"
>>> result("QVQLVESGGGLVQAGGSLRLRCAASGRTFYPYAMGWYRQAPGKERELVAAINWSGTSTYYADSVKGRFTISRDNAKNTVYLQMNSLKPEDTAVYYCAAKQYPVLHYSLTEADMDYWGQGTQVTVSS")
"low polyreactivity"
>>> result("QVQLVESGGGLVQAGGSLRLSCAASGFIFEWYAMGWYRQAPGKERELVAGIDSGSTYADSVKGRFTISRDNAKNTVYLQMNSLKPEDTAVYYCAKRSDAVIQRTYRYDYWGQGTQVTVSS")
"low polyreactivity"
>>> result("QVQLVESGGGLVQAGGSLRLSCAASGRIFFYYAMGWYRQAPGKERELVATISYSGGCTYYADSVKGRFTISRDNAKNTVYLQMNSLKPEETAVYYCNARWGTPYYIQDFDYWGQGTQVTVSS")
"low polyreactivity"
>>> result("QVQLVESGGGLVQAGGSLRLSCAASGIPLVSYARGWYRPAPGKVRELVAAISTSGGRTRYADSVKGRFTISRDHAKNTVYIQMNSLKPEDTAVYYCAAELVEPRYNHLPGDGNYWGQGTQVTGSS")
"high polyreactivity"
>>> result("QVQLVESGGGLVQAGGSLRLSCAASGFIFYFNAMGWYRQAPGKERELVAAISASGGRTYFADSVKGRFTISRDNAKNTVYLLMNSLKPEDTAVYYCAARGGSYYFRRYNYWGQGTQVNVSS")
"high polyreactivity"
>>> result("QVKLVESGGGLVQAGGSLRLSCAASGRTFLRYTMGWYRQAPGKEREFVAAISYDTSSTNYADSVKGRFTISRDNAKNNLYLQMNSLKPEDTAVYYCATGPYYGYDEFDYWGQGTQVTVSS")
"low polyreactivity"

query: Which polyreactivity (PSR sort gate) reading was recorded for the sequence QVQRVESGGGIVQAGGSLRLTCAASGITFVSYTIGWSRQAPGKEREFVAAITWNVASTYYADSVKGRFTISRDNAKNTVYLQMNSLKPEDTAVYYCAAYSRFTSDYWGQGTQVTVSS ?
result: high polyreactivity

query: Which polyreactivity (PSR sort gate) reading was recorded for the sequence QVQLVESGGGLVQAGGSLRLSCAASGSTFVGNAMGWYRQAPGKERELVAAITGGGGSTYYADSVKGRFTISRDNAKNTVYLQMNSLKPEDTAVYYCNKKLQRRSWYDYWGQGTQVTVSS ?
result: low polyreactivity

* * *

Experiment: yeast display, Sf9 membrane polyspecificity reagent, FACS + sequencing; frameworks hold sequencing errors
Measure: polyreactivity (PSR sort gate)

These recorded examples may help you get a feel for the data.
>>> result("QVQLVESGGGLVQAGGSLRLSCAASGFTFAWYTMGWYRQAPGKERELVAGIDWSGGSTYYADSVKGRFTISRDNAKNTVYLQMNSLKPEDTAVYYCNAAGLYYVYPGYDYWGQGTQVTVSS")
"high polyreactivity"
>>> result("QVQLEESGGGLVKARGSLRLSCAASGRTFNFYYMGWYRQAPGKERELVAAISSSGGSTYYADSVKGRFTISRDTAKYTVYLQMISLIPEDTAVYYCAKGPLYSLCFQHDAPYRYGYWGQATQVTVSS")
"low polyreactivity"
>>> result("QVQLVESGVGLVKAGGSLRLSCAASGFTIRPYAMGWYRQAPGKERELVAAITSGDSTNYADSVKGRFTISRDNAKNTVYLQMNSLKPEDTAVYYCAVDGGEFTSYGYWGQGTQVTVSS")
"low polyreactivity"
>>> result("QVQLVESVGGIVQAGGSLRLTCAASGSIIKRNAMGWYRQAPGKERELVATISSGDGSTRYADSVKGRFTISRDNAKNTVYLQMNSLKPEDTAVYYCARDFTYTYYRWKTPYRIGHDYWGQGTQVTVSS")
"low polyreactivity"
>>> result("QVHLVESGAGLVQAGGILRLSCAASGRIFAHYALGWYRQAPGKERELVAAISRGGSTKYADSVKGRFTISRDHAKNTVYFQMNSLKPEDTAVYYCARQLWGSPYGAYYAGDYWGQGTQVTVSS")
"low polyreactivity"
>>> result("QVQLVESGGGFVQAGGSLRLSCAASGRIFYGYAMGWYRQAPGKERELVAAISSGGITYYADSVKGRFTISRDNAKNTVYLQMNSLKPEDTAVYYCAADWAYYVASYLYYTFDYWGQGTQVTVSS")
"low polyreactivity"

query: Which polyreactivity (PSR sort gate) reading was recorded for the sequence QVQLVESGGGLVQAGGSLRLSCASSGFTFKDYAMGWYRQAPGKERELVAAISYSGGSTYYADSVKGRFTLSRDNAKNTVYLQMNSLKPEDTAVYYCARYFRRSAIYTRPRMDYWGQGTQVTVSS ?
result: high polyreactivity

query: Which polyreactivity (PSR sort gate) reading was recorded for the sequence QVQLVESGGGLVQAGGSLRLSCAASGITLVGNAMGWYRQAPGKERELVADINWSDDSTYYADSVKGRFTISRDNAKNTVYLQMNSLKQEDTAVYYCAADVSWRLYNRSSEYDYWGQGTQVTVSS ?
result: low polyreactivity

query: Which polyreactivity (PSR sort gate) reading was recorded for the sequence QVQLVESGGGLVQAGGSLRLSCAASGITFLPYAMGWYRQAPGKERELVAAITRGGGSTYADSVKGRFTISRDNAKYTVYLQMKSLKPEDTAVYYCAKRLGRVSWYEDYDYWGQGTEVTVSS ?
result: low polyreactivity

query: Which polyreactivity (PSR sort gate) reading was recorded for the sequence QVQLVESGGGLVQAGGSLRLSCAASGLTFPPYAMGWYRQAPGKERELVAAISWNGGNTYYADSVKGRFTISRDNAKNTVYLQMNSLKPEDTAVYYCAAKRGTQGMYYWGQGTQVTVSS ?
result: high polyreactivity

query: Which polyreactivity (PSR sort gate) reading was recorded for the sequence QVQLLESGGALVQAAGSLRLSCAASGYTIGRYAIGWYRHAPGKDRELVAAITWSGGSTYYADSVKGRFTISRDNAKNTVYLQMNSLKPEDTAVYYCAKRYRYYSYGPYGMYYWGQGTQVSVSS ?
result: high polyreactivity

* * *

Experiment: yeast display, Sf9 membrane polyspecificity reagent, FACS + sequencing; frameworks hold sequencing errors
Measure: polyreactivity (PSR sort gate)

These recorded examples may help you get a feel for the data.
>>> result("QVQLVESGGGLVQAGGSLRLSCAASGSTYYSNAMGWYRPAPGKERELVAGIDTSDGSTNYADSVKGRFTISRDNAKNTVYLQMNSLKPEDTAVYYCAADYTQPGFVSYDYWGQGTQVTVSS")
"low polyreactivity"
>>> result("QVQLVESGGGLVQAGASLRLSCAASGRTFTQYAMGWYRQAPGKERELVAAISRSGGTTYYADSVKGRFTISRENAKNTVYLQMNSLKPEDTAVYYCAARWWYRYNYDYWGQGTQVTVSS")
"high polyreactivity"
>>> result("QVQLEETGGGLVHAGGILRLSCAASGIIYVVNAMGWYRQAPAKERELVAAISRNGGSTYYADSVKGRFTISRDNAKNTVYLQMNSLIPEDTAVYYCADRTVGRNAGFDYWGQVTQVTVSS")
"high polyreactivity"
>>> result("QVKLVESGGGLVQEGGSLRLSCAASGRICGNYSMGWYRQAPGKERELVAAIDLSGDSTYYADSVKGRFTISRDNAKNTVYLQMNSLKPEDTAVYYCAATDWFSEYYWGQGTQVTVSS")
"low polyreactivity"
>>> result("QFQLVESVGGLVQAGGSLRLSCAASGFTFPSYAMGWYRQAPGKERELVAAISYRGGRTYYADSVKWRFTISRDNAKNTVYLQMNSLKPEDTAVYYCNALFATVPPWGFDYWGQGTQVTVSS")
"high polyreactivity"

query: Which polyreactivity (PSR sort gate) reading was recorded for the sequence QDQLVESGGGLVQAGGSLSLSCAASGSTFPYYAMGWSRPAPGKERELVAAISGSGGTTYYADSVKGRFTISRDNAKNTVYLQMNSLKPEDTAVYYCAVDIGVGYGYYYWGQGTQVTVSS ?
result: low polyreactivity

query: Which polyreactivity (PSR sort gate) reading was recorded for the sequence QVQLVESGGGLVQAGGSLRLSCAASGSIFWSNAMGWYRQAPGKERELVAAITWSGGSTYADSVKGRFTISRDNAKNTVYLQMNSLKPEDTAVYYCATDYPWAWFESDYWGQGTQVTVSS ?
result: low polyreactivity
